Test system: cerebral tele-methylhistamine
Test: agonist effect in vivo: change in the level of cerebral tele-methylhistamine in mice
Details: H3 partial agonists; mice; 10 mg/kg p.o.; 90 min
Procedure: The effect of a partial agonist in vivo is characterized by the fact that the maximum reduction in the level of tele-methylhistamine which it induces at high dose is smaller than the reduction induced by a reference H3 agonist. These various compounds were administered at a dose of 10 mg/kg p.o. and the mice sacrificed 90 min later.
Catalogue of Change in the level of cerebral tele-methylhistamine (relative to controls) values
# number only, unit % dropped from output

Recorded Change in the level of cerebral tele-methylhistamine (relative to controls), per entry:
FC(F)(F)c1cccc(OCCCc2c[nH]cn2)c1 : -41
O=C(NC(c1ccccc1)c1ccccc1)OCCCc1c[nH]cn1 : -30
CC(C)(C)CNC(=O)OCCCc1c[nH]cn1 : -34

Endpoint output: Change in the level of cerebral tele-methylhistamine (relative to controls) of CC(=O)c1cccc(SCCc2c[nH]cn2)c1.O=C(O)C(=O)O . Value?
-38

I am curious: what Change in the level of cerebral tele-methylhistamine (relative to controls) value has been reported for CC(C)CCOCCCc1c[nH]cn1 ?
-52

Cited source: patent US6248765A
